The reported measurements were obtained from patent US7435837B2.

Structures can show the parent of a compound that is named as a salt.
Please respond with reported melting point for every item in the list.

GET /value?item= Cc1ccccc1-c1cc(Cl)cc2c1OC(CN)C2 (racemic) (as salt: salt) [Example 95] &field=melting point returns 160 to 163 °C

Lab note: measured melting point of Cc1ccc(-c2cccc3c2OC(CN)C3)cc1 (racemic) (as salt: hydrochloride) [Example 70] was 231 to 232 °C

Item: Cc1ccccc1-c1cccc2c1CC(CN)O2 (single isomer, unassigned; (-)) (as salt: hydrobromid) [Example 6] | melting point: 231 to 233 °C

Documented melting point of CC(C)(C)CCc1cccc2c1OC(CN)C2 (racemic) (as salt: hydrochloride) : 158 to 160 °C

Summary for this compound, COc1ccc(-c2cccc3c2OC(CN)C3)c(OC)c1 (single isomer, unassigned; (-)) (as salt: hydrochloride) [Example 144] : melting point is 166 to 168 °C

melting point reported for this compound COc1ccccc1-c1cccc2c1OC(CN)C2 (racemic) (as salt: hydrochloride) [Example 59] : > 250 °C

NCC1Cc2cccc(-c3ccc4ccccc4c3)c2O1 (racemic) (as salt: hydrochloride) has a reported melting point of 135 to 140 °C

Query COc1cccc(-c2cccc3c2OC(CN)C3)c1 (racemic) (as salt: hydrochloride) [Example 68] yields melting point of 152 to 154 °C

Record NCC1Cc2cccc(Cc3ccccc3)c2O1 (single isomer, unassigned; (+)) (as salt: hydrochloride) [Example 16] , field melting point: 128 to 131 °C

The value of melting point measured for the compound NCC1Cc2cc(F)cc(-c3ccccc3)c2O1 (racemic) (as salt: hydrochloride) turned out to be 255 to 260 °C

# batch: return melting point for each of the 4 compounds below
1. NCC1Cc2cccc(-c3ccc(F)c(Cl)c3)c2O1 (racemic) (as salt: hydrochloride)
2. Cc1ccccc1-c1cc(Cl)cc2c1OC(CN)C2 (single isomer, unassigned; (+)) (as salt: hydrobromid) [Example 96]
3. NCC1Cc2c(cccc2-c2ccccc2)O1 (single isomer, unassigned; (+)) (as salt: hydrobromid) [Example 2]
4. NCC1Cc2cccc(/C=C/c3ccccc3)c2O1 (racemic) (as salt: hydrochloride)

1. > 210 °C
2. 170 to 172 °C
3. 225 to 226 °C
4. 209 to 211 °C

* * *

For each of the molecules below, state its pEC50.
Molecular target: human 5-HT2C receptor (Homo sapiens)
Sequence (P28335 33-458): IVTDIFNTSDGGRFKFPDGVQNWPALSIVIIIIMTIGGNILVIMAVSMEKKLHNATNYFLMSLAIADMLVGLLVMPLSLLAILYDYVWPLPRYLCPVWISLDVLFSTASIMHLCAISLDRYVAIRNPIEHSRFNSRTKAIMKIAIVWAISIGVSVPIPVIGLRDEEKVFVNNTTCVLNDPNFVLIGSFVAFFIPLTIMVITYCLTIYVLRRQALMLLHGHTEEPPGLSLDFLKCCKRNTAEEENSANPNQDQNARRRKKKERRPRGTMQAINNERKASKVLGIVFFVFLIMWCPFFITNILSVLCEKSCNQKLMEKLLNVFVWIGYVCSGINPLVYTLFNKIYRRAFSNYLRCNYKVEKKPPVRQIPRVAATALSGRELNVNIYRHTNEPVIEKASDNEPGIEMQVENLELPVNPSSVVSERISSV
Test: 5-HT2C receptor-stimulated calcium mobilization (FLIPR) in CHO cells;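 further: Fluo-3-AM fluorescence read on FLIPR every 1 s, agonist added after 10 baseline reads, response taken as peak minus lowest raw fluorescence count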
Assay type: cell-based
Details: calcium mobilization, CHO cells stably expressing human 5-HT2C; read-out: 5-HT2C Function EC50
Answers are plain numbers, as −log10 of the molar value.

// solved cases for pEC50 follow
The reported value for NCC1Cc2cc(F)cc(-c3ccc(Cl)cc3)c2O1 (racemic) [Example 200] in terms of pEC50 is 6.43

// Cc1ccccc1-c1cc(F)cc2c1OC(CN)C2 (racemic) [Example 104] : pEC50 value = 6.62

Recorded pEC50 (molecule COc1ccccc1-c1cc(C)cc2c1OC(CN)C2 (racemic) [Example 284] ): 8.15

Measured pEC50, CNCC1Cc2cccc(-c3cccc(C)c3C)c2O1 (racemic) [Example 422] : 6.35

I would be grateful if you could provide pEC50 for each of the following entries.
1. CC(C)c1ccccc1-c1cccc2c1OC(CN)C2 (single isomer, unassigned; (+)) [Example 62]
2. COc1ccc(OC)c(-c2cc(OC)cc3c2OC(CN)C3)c1 (racemic) [Example 371]
3. Fc1cc2c(c(-c3c(Cl)cccc3Cl)c1)OC(CN1CCCC1)C2 (racemic) [Example 240]
4. Cc1cccc(C)c1-c1cc(F)cc2c1OC(CN)C2 (single isomer, unassigned; (-)) [Example 229]

1. 6.89
2. 7.19
3. 7.05
4. 8.22
